- System: HCT-116
- assay.method.text: Cytotoxicity against human HCT116 cells
- Type: functional, cell-based
measure.name: pIC50
Scale note: pIC50 = -log10(concentration in M).

input: Give its pIC50 value. Item: `COc1c(SC)c(CCN(C)C)c2sc3c(OC)c(OC)c(SC)c(CCN(C)C)c3ssc2c1OC`
output: 6.85

###

- Test system: MDA-MB-231
- assay.method.text: Cytotoxicity against human MDA-MB-231 cells
- Format: functional, cell-based
measure.name: IC50 (nM)
All answers are understood in nM, so give the number only.

input: Give its IC50 value. Item: `COc1c(SC)c(CCN(C)C)c2sc3c(OC)c(OC)c(SC)c(CCN(C)C)c3ssc2c1OC`
output: 200
